pIC50: −log10 of the molar value.
From various publications: pIC50 for Vascular endothelial growth factor receptor 2 (Homo sapiens).
property: pIC50

molecule: C=CC(=O)Nc1cc2c(Nc3ccc(Br)cc3F)ncnc2cc1OCC1CCN(C(=O)NC(C)(C)C)CC1
limit_sign: =
value_measured: 7.30
--
molecule: CCOc1ccn(-c2ccc(F)cc2)c(=O)c1C(=O)Nc1ccc(Oc2ccnc3cc(OCC4CC4)c4c(c23)OCCO4)c(F)c1
limit_sign: ≥
value_measured: 7.30
--
molecule: COc1cc(OC)cc(N(CCO)c2ccc3ncc(-c4ccnc(C(=O)NCCCCCN)c4)nc3c2)c1
limit_sign: =
value_measured: 6.12
--
molecule: CCCS(=O)(=O)Nc1ccc(F)c(C(=O)c2c[nH]c3ncc(CCCN4CCCC4)cc23)c1F
limit_sign: ≥
value_measured: 5.00
--
molecule: Cn1cnc(-c2ccc3c(Oc4ccc(NC(=O)NC5CC5)c(Cl)c4F)ccnc3c2)c1
limit_sign: >
value_measured: 7.30
--
molecule: CC1CN(c2cc(NC(=O)Nc3ccc(Oc4ccnc(NC(=O)C5CC5)c4)c(F)c3)cc(C(F)(F)F)c2)CC(C)O1 (stereo not shown)
limit_sign: =
value_measured: 8.21

* * *

pIC50: −log10 of the molar value.
From various publications: pIC50 for Vascular endothelial growth factor receptor 2 (Homo sapiens, UniProt P35968).
property: pIC50

compound: CCCS(=O)(=O)Nc1ccc(F)c(C(=O)c2c[nH]c3ncc(-c4ccc(OCCCN5CCOCC5)nc4)cc23)c1F
value_measured: ≥ 5.00

compound: CS(=O)(=O)c1ccc(CN2C3CC2CN(c2cnc(-c4cc(-c5cnn(C(F)F)c5)cn5ncc(C#N)c45)cn2)C3)cc1
value_measured: 7.25

compound: O=C(Nc1ccc(Oc2ccnc(NC(=O)C3CC3)c2)c(F)c1)Nc1cc(C(F)(F)F)ccc1F
value_measured: 8.08

compound: Cc1ccc(F)c(NC(=O)Nc2ccc(-c3nn(CCCCCCCC(=O)NO)c4ncnc(N)c34)cc2)c1
value_measured: 8.66

compound: CC(C)Oc1ncccc1CNc1ccc(Cc2c[nH]c3ncncc23)c(F)n1
value_measured: ≥ 5.00

compound: O=C(O)/C=C/c1cccc(-c2ccnc3[nH]cc(C(=O)c4cc(F)ccc4F)c23)c1
value_measured: ≥ 5.00

compound: Cn1cc(-c2cc(Oc3cccc(NC(=O)c4cccc5ccccc45)c3)ccn2)cn1
value_measured: < 5.00

compound: O=C(Nc1cc(F)cc(C(=O)c2ccc3ncc(N4CCOCC4)nc3c2)c1)Nc1cccc(C(F)(F)F)c1
value_measured: > 7.00

compound: COc1ccc(CN2C3CC2CN(c2ccc(-c4cc(N5CCOCC5=O)cn5ncc(C#N)c45)cn2)C3)cn1
value_measured: 6.12

compound: CCOc1cc(-c2ccc(N3C[C@@H]4[C@@H](CNC(=O)c5ncccc5Cl)[C@@H]4C3)nc2)c2c(C#N)cnn2c1
value_measured: 7.00 to 7.30

compound: O=[N+]([O-])c1cc(S(=O)(=O)NCc2c[nH]c3ncccc23)sc1Cl
value_measured: ≥ 5.00

compound: CC(F)(F)c1cc(F)cc(NC(=O)Nc2ccc(Oc3ccnc(NC(=O)C4CC4)c3)cc2F)c1
value_measured: 8.11

compound: COCCOc1cc2nccc(Oc3cc(F)c(NC(=O)c4c(C)n(C)c(C)c(C#N)c4=O)cc3F)c2nc1OC
value_measured: < 6.52

compound: C=CC(=O)Nc1cc2c(Nc3ccc(Br)cc3F)ncnc2cc1OCCNC(=O)N1CCNCC1
value_measured: 6.16

compound: CCCS(=O)(=O)Nc1ccc(F)c(C(=O)c2c[nH]c3ncc(C(=O)OCC)cc23)c1F
value_measured: ≥ 5.00

compound: Nc1nnc(-c2cc(NC(=O)Nc3ccc(Oc4ccnc(NC(=O)C5CC5)c4)c(F)c3)cc(C(F)(F)F)c2)o1
value_measured: 7.94

compound: O=C(c1ccc(Nc2cccc(O)c2)nc1)c1c[nH]c2ncccc12
value_measured: ≥ 5.00

compound: O=C1CCc2c(Oc3ccc(NC(=O)Nc4ccc(F)cc4)cc3)ccnc2N1
value_measured: 7.15

compound: Cn1cc(-c2nccc(Oc3ccc(F)c(NC(=O)Nc4ccc(Cl)c(C(F)(F)F)c4)c3)n2)cn1
value_measured: ≥ 5.00

compound: Fc1ccc(Nc2ncnc3nn4ccccc4c23)cc1Cl
value_measured: < 5.00

compound: O=C(CCCCCN1CCN(Cc2ccc(-c3cc4c(NCc5ccccc5)ncnc4[nH]3)cc2)CC1)NO
value_measured: 6.00 to 7.00

compound: Cc1cc(Nc2ncc(-c3cccc(OC4CCCC4)c3)o2)cnc1N1CCN(C)CC1
value_measured: > 6.00

compound: COc1cc(Oc2ccnc3cc(OC)c(C(N)=O)cc23)ccc1NC(=S)NC1CC1
value_measured: 6.70 to 7.30

compound: COc1cc2nccc(Oc3ccc(Nc4c(NCCN(C)C)c(=O)c4=O)c(Cl)c3)c2cc1C(N)=O
value_measured: 6.00 to 6.70

compound: Cc1[nH]c2c(c1C(=O)NCCN1CCCCC1)CCC/C2=C1/C(=O)Nc2ccc(F)cc21
value_measured: 8.04

compound: CS(=O)(=O)c1cccc(-c2cnc3[nH]cc(C(=O)c4cc(NS(=O)(=O)C5CCCC5)ccc4F)c3c2)c1
value_measured: ≥ 5.00

compound: COc1cc2nccc(Oc3ccc(NC(=S)N4CCCC4)c(Cl)c3)c2cc1NC(C)=O
value_measured: 6.00 to 6.70

compound: Cc1cnc(-c2cnc3[nH]cc(C(=O)c4c(F)ccc(NS(=O)(=O)c5cccc(OC(F)F)c5)c4F)c3c2)[nH]1
value_measured: ≥ 5.00

compound: CCS(=O)(=O)Nc1ccc(F)c(C(=O)c2c[nH]c3ncc(OC)cc23)c1F
value_measured: ≥ 5.00

compound: Cc1cc(Oc2cc(NC(=O)C3CC3)ncn2)ccc1NC(=O)Nc1ccc(Cl)c(OC(F)(F)F)c1
value_measured: 8.17

compound: COc1cccc(-c2cnc(Nc3ccc(N4CC(C)NC(C)C4)cc3)o2)c1 (stereo not shown)
value_measured: > 6.00

* * *

From various publications: pIC50 for Vascular endothelial growth factor receptor 2 (Homo sapiens, UniProt P35968).
pIC50: −log10 of the molar value.

molecule: Cn1cncc1C#Cc1ccn2c(-c3cncc(NC(=O)NCC(F)(F)F)c3)cnc2c1
limit_sign: <
pIC50: 4.52

molecule: Nc1ncnc2c1c(-c1cccc(OCC3CCCO3)c1F)cn2[C@H]1C[C@@H](CN2CCS(=O)(=O)CC2)C1 (mixture of isomers)
limit_sign: =
pIC50: 5.62

molecule: CCN(CC)S(=O)(=O)Nc1ccc(F)c(C(=O)c2c[nH]c3ncc(C)cc23)c1F
limit_sign: ≥
pIC50: 5.00

molecule: CN1CCC(c2cc(NC(=O)Nc3ccc(Oc4ccnc(NC(=O)C5CC5)c4)cn3)cc(C(F)(F)F)c2)CC1
limit_sign: =
pIC50: 8.11

molecule: N#Cc1cnn2cc(-c3cnn(C(F)F)c3)cc(-c3ccc(N4CC5CC(C4)N5Cc4ccc([N+](=O)[O-])cc4)nc3)c12
limit_sign: =
pIC50: 8.34

* * *

From various publications: pIC50 for Vascular endothelial growth factor receptor 2 (Homo sapiens, UniProt P35968).
pIC50: −log10 of the molar value.
property: pIC50

molecule: Cn1cc(-c2cc(Oc3cccc(NC(=O)c4cccc(-c5ccccc5)c4)c3)ccn2)cn1
value_measured: < 5.00

molecule: CCCS(=O)(=O)Nc1ccc(F)c(C(=O)c2c[nH]c3ncc(-c4cccnc4)cc23)c1F
value_measured: ≥ 5.00

molecule: Nc1cccc(-c2ccc(O)c(-c3ccnc(N)n3)c2)c1
value_measured: 4.70 to 6.00

molecule: Cc1cc(NC(=O)Nc2cc(F)cc(C(C)(F)F)c2)ccc1Oc1cc(NC(=O)C2CC2)ncn1
value_measured: 8.02

molecule: C=CC(=O)Nc1cc2c(Nc3cc(Cl)c(Br)cc3F)ncnc2cc1OCCNC(=O)CN(C)C
value_measured: 6.11

molecule: COc1cc(OC)cc(N(CC2CC2)c2ccc3ncc(-c4nccs4)nc3c2)c1
value_measured: < 5.00

molecule: CCN(CC)Cc1ccc(Nc2ncc(-c3cccc(OC)c3)o2)cc1
value_measured: > 6.00

molecule: C=CC(=O)Nc1cccc(-c2cccc3cnc(Nc4ccc(N5CCN(C)CC5)cc4F)nc23)c1
value_measured: 6.30 to 7.00

molecule: CCOc1cc(-c2ccc(N3C[C@@H]4C[C@@](C)(NC(=O)c5ncccc5Cl)C[C@@H]4C3)nc2)c2c(C#N)cnn2c1
value_measured: 7.30 to 8.00

molecule: Cc1cc[nH]c(=O)c1N1CCc2nc(N)ncc2C1
value_measured: < 5.00

molecule: COc1ccnc2[nH]cc(C(=O)c3c(F)ccc(NS(=O)(=O)c4c(F)cccc4F)c3F)c12
value_measured: ≥ 5.00

molecule: COc1cn(-c2ccc(F)cc2C)nc1C(=O)Nc1ccc(Oc2ccnc3cc(OCCCN4CCOCC4)c4c(c23)OCCO4)c(F)c1
value_measured: ≥ 7.30

molecule: COc1ccc(C(O)c2c[nH]c3ncccc23)cc1 (stereo not shown)
value_measured: ≥ 5.00

molecule: CCOc1ccn(-c2ccc(F)cc2)c(=O)c1C(=O)Nc1ccc(Oc2ccnc3cc(OCCCN(C)CCOC)c4c(c23)OCCO4)c(F)c1
value_measured: ≥ 7.30

molecule: N#Cc1ccc(-n2nc(-c3ccncc3)c(-c3ccc(F)cc3)c2N)cc1
value_measured: 5.89

molecule: CCNC(=O)Nc1ccc(Oc2ccnc3cc(-c4cn(C)cn4)ccc23)c(F)c1Cl
value_measured: > 7.30

molecule: O=C(c1cc(NS(=O)(=O)c2ccc(OC(F)(F)F)cc2)ccc1F)c1c[nH]c2ncc(Cl)cc12
value_measured: ≥ 5.00

molecule: [2H]C([2H])([2H])NC(=O)c1coc2cc(Oc3ccnc4cc(OC)c(C(N)=O)cc34)c(F)cc12
value_measured: 6.70 to 7.30

molecule: CN1CCN(c2ccc(Nc3nc4c(-c5ccc6c(cnn6C)c5)nccn4n3)cc2)CC1
value_measured: 5.52 to 6.52

molecule: COc1cc(-c2cc3nccc(-c4cnn(C)c4)c3o2)ccc1OCCNC(=O)OC(C)(C)C
value_measured: 5.52 to 6.52

molecule: CCOc1ccn(-c2cccc(F)c2)c(=O)c1C(=O)Nc1ccc(Oc2ccnc3cc(OC)c4c(c23)OCCO4)c(F)c1
value_measured: 6.30 to 7.30

molecule: COc1ccc2nccc(Oc3ccc(NC(=O)c4cnc(C)c(C5=CCCCC5)c4O)cc3F)c2n1
value_measured: 6.52 to 7.00

molecule: COc1cc(OC)cc(N(CCCO)c2ccc3ncc(-c4ccc(C)nc4)nc3c2)c1
value_measured: 6.51

molecule: Cc1cnc2[nH]cc(C(=O)c3c(F)ccc(NS(C)(=O)=O)c3F)c2c1
value_measured: ≥ 5.00

molecule: O=C(O)CCc1cccc(-c2cnc3[nH]cc(C(=O)c4cccc(NS(=O)(=O)C5CCCCC5)c4)c3c2)c1
value_measured: ≥ 5.00

molecule: Cc1cc(C)cc(Nc2nc3c(NCCCN4CCN(C)CC4)nccn3n2)c1
value_measured: 4.30 to 5.52

molecule: O=C(O)/C=C/c1cccc(-c2cnc3[nH]cc(C(=O)c4ccccc4F)c3c2)c1
value_measured: ≥ 5.00

molecule: COc1cc(-c2cc3nccc(Nc4ccc5[nH]ccc5c4C)c3o2)cc(OC)c1OC
value_measured: > 6.52

molecule: Cn1cc(-c2cc(-c3ccc(N4C[C@@H]5[C@H](C4)[C@H]5NC(=O)c4c(F)cccc4Cl)nc3)c3c(C#N)cnn3c2)cn1
value_measured: ≥ 8.00

molecule: CCCS(=O)(=O)Nc1ccc(F)c(C(=O)c2c[nH]c3ncc(-c4ccc(C(=O)NC5CC5)nc4)cc23)c1F
value_measured: ≥ 5.00

molecule: O=C(Nc1ccc(C2CN=C3c4ccccc4NC(=O)N3C2)cc1)Nc1ccc(Cl)c(C(F)(F)F)c1 (stereo not shown)
value_measured: 6.47
